test: Binding affinity to chymotrypsin (unknown origin) assessed as acetylation at pH 7; conditions: Homo sapiens
measure: log K

Documented log K of CC(C)c1ccc(C(=O)Oc2ccc([N+](=O)[O-])cc2[N+](=O)[O-])cc1 : 5.99

Documented log K of COC(=O)[C@@H](NC(C)=O)C(C)C : -0.01

Documented log K of Cc1ccc(C(=O)Oc2ccc([N+](=O)[O-])cc2[N+](=O)[O-])cc1 : 5.22

Documented log K of O=C(Oc1ccc([N+](=O)[O-])cc1)c1ccc(Cl)cc1 : 3.56

Documented log K of CCc1ccc(C(=O)Oc2ccc([N+](=O)[O-])cc2)cc1 : 3.97

###

test: Binding affinity to chymotrypsin (unknown origin) assessed as deacetylation; details: Homo sapiens
Decision: log K beneath -1 gives Yes; log K meeting or exceeding -1 gives No.

Worked examples, 4 molecules total:
CC(C)(C)CC(=O)Oc1ccc([N+](=O)[O-])cc1 :: Yes
CCOC(=O)[C@H](Cc1ccc(O)cc1)NC(C)=O :: No
O=C(Cc1c[nH]c2ccccc12)Oc1ccc([N+](=O)[O-])cc1 :: Yes
CCC[C@H](NC(C)=O)C(=O)OC :: No

Continue with the next molecule.
Given the entry O=COc1ccc([N+](=O)[O-])cc1 , would its reported log K be below -1? No

###

experiment: Binding affinity to chymotrypsin (unknown origin) assessed as hydrolysis; conditions: Homo sapiens
Decision: logKcat beneath -0.2 gives MET; logKcat meeting or exceeding -0.2 gives NOT MET.

Worked examples, 4 compounds total:
COC(=O)[C@H](C)NC(=O)c1cccs1 :: MET
COC(=O)[C@H](C)NC(=O)c1ccccc1 :: MET
CCCCC[C@H](NC(C)=O)C(=O)OC :: NOT MET
CS(=O)(=O)N[C@@H](Cc1ccccc1)C(=O)Oc1cccc([N+](=O)[O-])c1 :: NOT MET

Given the entry CCOC(=O)[C@@H](NC(C)=O)C(C)C , would its reported logKcat be below -0.2? MET

Given the entry CC(=O)N[C@H](C(=O)OC(C)C)C(C)C , would its reported logKcat be below -0.2? MET

Given the entry CC[C@H](NC(C)=O)C(=O)OC , would its reported logKcat be below -0.2? NOT MET

Given the entry COC(=O)CNC(=O)c1ccccc1 , would its reported logKcat be below -0.2? MET

Given the entry O=C(CNC(=O)c1ccccc1)Oc1cccc([N+](=O)[O-])c1 , would its reported logKcat be below -0.2? MET

Given the entry O=C(CNC(=O)c1ccccc1)OCc1ccncc1 , would its reported logKcat be below -0.2? MET

Given the entry CC(=O)c1ccc(OC(=O)CNC(=O)c2ccccc2)cc1 , would its reported logKcat be below -0.2? MET

Given the entry O=C(CNC(=O)c1ccccc1)Oc1ccc(Cl)cc1 , would its reported logKcat be below -0.2? MET

Given the entry CCOC(=O)[C@H](Cc1ccc(O)cc1)NC(C)=O , would its reported logKcat be below -0.2? NOT MET

Given the entry O=C(CNC(=O)c1ccccc1)Oc1ccc([N+](=O)[O-])cc1 , would its reported logKcat be below -0.2? MET

###

# log K listing for each entry below
experiment: Binding affinity to chymotrypsin (unknown origin) assessed as deacetylation; conditions: Homo sapiens

Past entries and their recorded results:
O=C(N[C@@H](Cc1ccccc1)C(=O)Oc1ccc([N+](=O)[O-])cc1)OCc1ccccc1 :: 1.59
O=C(Oc1ccc([N+](=O)[O-])cc1)c1ccccc1 :: -3.69
CCCCCC(=O)Oc1ccc([N+](=O)[O-])cc1 :: -1.44
CC(C)CC(=O)Oc1ccc([N+](=O)[O-])cc1 :: -2.9
O=C(CCCl)Oc1ccc([N+](=O)[O-])cc1 :: -1.67
O=C(CNC(=O)OCc1ccccc1)Oc1ccc([N+](=O)[O-])cc1 :: -0.39

Continue with the compound presented below.
Documented log K of CC[C@H](NC(=O)OCc1ccccc1)C(=O)Oc1ccc([N+](=O)[O-])cc1 : 0.43
